Data credit: patent US20250263408A1

System: Ba/F3-WT (wild type) cells
Assay: Ba/F3 Proliferation Assay, Ba/F3-WT (wild type) cells with mIL-3 (Resazurin)
Type: cell-based
Conditions: Mus musculus, BaF3, 48 h, Ba/F3-WT cells +mIL-3, 48-hour incubation
pEC50: −log10 of the molar value.
measured.property: pEC50

Some solved cases for reference:
mol_smiles=c1cnc2cc(-c3cnn(C4CC4)c3)cc(OC[C@@H]3CNCCO3)c2c1 quantitative_result=5.59
mol_smiles=CC(C)(C)n1cc(-c2cc(OC[C@@H]3CNCC4(CC4)O3)c3nccnc3c2)cn1 quantitative_result=5.89
mol_smiles=c1cnc2cc(-c3cnn(C4CCC4)c3)nc(OC[C@@H]3CNCCO3)c2c1 quantitative_result=6.16
mol_smiles=c1cnc2cc(-c3ccn(C4COC4)c3)cc(OC[C@@H]3CNCCO3)c2c1 quantitative_result=5.81

[P] CC(C)n1ccc(-c2cc(O[C@H](C)[C@@H]3CNCCO3)c3cccnc3c2)c1
[Q] CC1(C)CNC[C@@H](COc2cc(-c3ccn(C(C)(C)C)c3)cc3ncccc23)O1
[R] CC(C)n1cc(-c2cc(OC[C@@H]3CNC[C@@H](C)O3)c3cccnc3c2)cn1
[S] F/C=C\n1cc(-c2cc3ncccc3c(OC[C@@H]3CNCCO3)n2)cn1
Order the items by recorded pEC50; the first position goes to the largest value. Thanks in advance for listing the labels in the requested order.
R, P, S, Q

====

System: Ba/F3-WT (wild type) cells
Test: Ba/F3 Proliferation Assay, Ba/F3-WT (wild type) cells with mIL-3 (Resazurin)
Format: cell-based
Details: Mus musculus, BaF3, 48 h, Ba/F3-WT cells +mIL-3, 48-hour incubation
pEC50: −log10 of the molar value.
measured.property: pEC50

molecule="C[C@@H](Oc1nc(-c2ccn(C)c2)cc2ncccc12)[C@@H]1CNCCO1 [Compound 2.44]" quantitative_result=5.68

[a] FC(F)Cn1ccc(-c2cc(OC[C@@H]3CNCCCO3)c3nccnc3c2)c1 [Compound 8.20]
[b] Cc1cc(-c2cc3ncccc3c(OC[C@@H]3CNCCO3)n2)sc1Cl [Compound 2.35]
When their pEC50 values are compared, which is larger, a or b ? Return value: the label identifying the chosen record.
b

====

Experiment: Brain Penetration Assays: Mouse Pharmacokinetics (plasma and brain levels after oral dose)
Format: in vivo
Conditions: male, CD-1, mouse, brain (free, unbound); mice, 1 hour post oral dose of 10 mg/kg
concentration at 1 h: recorded values

mol_smiles=C[C@@H](Oc1nc(-c2cnn(C(C)(C)C)c2)cc2ncccc12)[C@@H]1CNCCO1 measured_property="concentration at 1 h" result="≤ 25 nM"
mol_smiles=Cn1ccc(-c2cc(OC[C@@H]3CNCC(C)(C)O3)c3cccnc3c2)c1 measured_property="concentration at 1 h" result="> 25 nM"
mol_smiles=CC(C)n1cc(-c2cc3ncccc3c(O[C@H](C)[C@@H]3CNCCO3)n2)cn1 measured_property="concentration at 1 h" result="≤ 25 nM"

Continue with the next compound.
Assign concentration at 1 h to the following record: Cn1cc(-c2cc3ncccc3c(OC[C@@H]3CNCC4(CCC4)O3)n2)cn1
> 25 nM

====

Target: Ba/F3-Syk cells (Homo sapiens, UniProt P43405)
Construct: fused on or other part: Possible but unprinted fusion partner: TEL (ETV6), the usual partner for Ba/F3 lines transformed by Syk; Nothing on a partner is printed
Assay: Ba/F3 Proliferation Assay, Ba/F3-Syk cells (Resazurin)
Settings: 48-hour incubation
pEC50: −log10 of the molar value.
measured.property: pEC50

Some solved cases for reference:
compound="CC(C)n1cc(-c2cc(OC[C@@H]3CNCC4(CC4)O3)c3nccnc3c2)cn1 [Compound 12.2]" measured_property=pEC50 quantitative_result=7.54
compound="Cn1ccc(-c2cc3ncccc3c(OC[C@@H]3CNCC4(CC4)O3)n2)c1 [Compound 2.60]" measured_property=pEC50 quantitative_result=7.58
compound="Cn1cc(-c2cc3ncccc3c(OC[C@@H]3CN[C@@H]4CCC[C@@H]4O3)n2)cn1 (relative stereo) [Compound 2.54]" measured_property=pEC50 quantitative_result=6.54

[a] c1cnc2cc(-c3cnn([C@@H]4CCOC4)c3)nc(OC[C@@H]3CNCCO3)c2c1 [Compound 6.45]
[b] C[C@@H]1NCCO[C@@H]1COc1nc(-c2cnn(C(C)(C)C)c2)cc2ncccc12 [Compound 13.6]
Please indicate which has the smaller reported pEC50: a , or b . Return value: the label identifying the chosen record.
a

[P] CC1(C)CNC[C@@H](COc2cc(-c3ccn(C(C)(C)C)c3)cc3ncccc23)O1 [Compound 3.16]
[Q] Cn1ccc(-c2cc3ncccc3c(OC[C@@H]3CNCC(C)(C)O3)n2)c1 [Compound 2.51]
When their pEC50 values are compared, which is larger, P or Q ? Return value: the label identifying the chosen record.
P

====

Target: Ba/F3-Syk cells (Homo sapiens)
Construct: fused on or other part: Possible but unprinted fusion partner: TEL (ETV6), the usual partner for Ba/F3 lines transformed by Syk; Nothing on a partner is printed
Experiment: Ba/F3 Proliferation Assay, Ba/F3-Syk cells (Resazurin)
Assay type: cell-based
Details: 48-hour incubation
pEC50: −log10 of the molar value.
measured.property: pEC50

Some solved cases for reference:
compound=Cn1ccc(-c2cc3ncccc3c(OC[C@@]3(C)CNCCO3)n2)c1 measured_property=pEC50 quantitative_result=6.83
compound="CC(C)(C)n1cc(-c2cc3ncccc3c(OC[C@@H]3CN[C@H]4CCC[C@H]4O3)n2)cn1 (relative stereo) [Compound 2.85]" measured_property=pEC50 quantitative_result=7.23
compound="CC(C)(C)n1cc(-c2cc3ncccc3c(OC[C@H]3CN[C@@H]4CCC[C@@H]4O3)n2)cn1 (stereo in doubt)" measured_property=pEC50 quantitative_result=7.66
compound=CC(C)(C)n1cc(-c2cc3ncccc3c(OC[C@@H]3CNC[C@H](C(F)F)O3)n2)cn1 measured_property=pEC50 quantitative_result=7.51
compound=c1cnc2cc(-c3ccn(C4CCC4)c3)cc(OC[C@@H]3CNCCO3)c2c1 measured_property=pEC50 quantitative_result=7.13
compound=c1cnc2cc(-c3ccns3)nc(OC[C@@H]3CNCCO3)c2c1 measured_property=pEC50 quantitative_result=6.23
compound=CCn1ccc(-c2cc(OC[C@@H]3CNCCCO3)c3nccnc3c2)c1 measured_property=pEC50 quantitative_result=7.69

[A] Clc1ccc(-c2cc3ncccc3c(OC[C@@H]3CNCCO3)n2)s1
[B] CCn1ccc(-c2cc(O[C@H](C)[C@@H]3CNCCO3)c3cccnc3c2)c1
[C] COCCn1ccc(-c2cc(OC[C@@H]3CNCC4(CC4)O3)c3nccnc3c2)c1
[D] COCCn1ccc(-c2cc3ncccc3c(OC[C@@H]3CNCCO3)n2)c1
[E] CC1(C)CNC[C@@H](COc2nc(-c3cnn(C(C)(C)C)c3)cc3ncccc23)O1
// smallest pEC50 at index 0, largest at the end Thanks in advance for listing the labels in the requested order.
A, D, B, C, E
(A: 6.41, D: 6.98, B: 7.27, C: 7.53, E: 7.90)

====

Target: Syk (Homo sapiens)
measured.property: IC50 (nM)

mol_smiles=CCn1ccc(-c2cc3ncccc3c(OC[C@@H]3CNCC(C)(C)O3)n2)c1 study_target="Syk (Homo sapiens)" measured_property=IC50 quantitative_result=11.9
mol_smiles=CC(C)(C)n1cc(-c2cc3ncccc3c(OC[C@@H]3CNCC4(CC4)O3)n2)cn1 study_target="Syk (Homo sapiens)" measured_property=IC50 quantitative_result=26.4
mol_smiles=CC1(C)CNC[C@@H](COc2nc(-c3cnn(CC(F)F)c3)cc3ncccc23)O1 study_target="Syk (Homo sapiens)" measured_property=IC50 quantitative_result=9.1
mol_smiles=FC(F)Cn1ccc(-c2cc3ncccc3c(OC[C@@H]3CNCCO3)n2)c1 study_target="Syk (Homo sapiens)" measured_property=IC50 quantitative_result=14.2
mol_smiles=c1cnc2cc(-c3ccn(C4COC4)c3)cc(OC[C@@H]3CNCCO3)c2c1 study_target="Syk (Homo sapiens)" measured_property=IC50 quantitative_result=29.3

[I] c1cnc2cc(-c3ccn(C4COC4)c3)nc(OC[C@@H]3CNCCO3)c2c1
[II] Cn1cc(-c2cc3ncccc3c(OC[C@@H]3CNCCO3)n2)cn1
[III] Cn1ccc(-c2cc3ncccc3c(OC[C@@H]3CNCC(C)(C)O3)n2)c1
[IV] CC(C)(C)n1cc(-c2cc3ncccc3c(OC[C@@H]3CNC[C@H](C4CC4)O3)n2)cn1
[V] c1cnc2cc(-c3cnn(C4CC4)c3)nc(OC[C@@H]3CNCCO3)c2c1
Order the items by recorded IC50; the first position goes to the largest value. Thanks in advance for listing the labels in the requested order.
V, II, I, IV, III
(V: 82.8 nM, II: 39 nM, I: 24.6 nM, IV: 12.9 nM, III: 8.1 nM)

[I] C[C@@H](Oc1nc(-c2ccn(C)c2)cc2ncccc12)[C@@H]1CNCCO1
[II] CC(C)(C)n1cc(-c2cc3ncccc3c(OC[C@@H]3CNCCCO3)n2)cn1
[III] CC1(C)CNC[C@@H](COc2nc(-c3ccn(C4COC4)c3)cc3ncccc23)O1
// smallest IC50 at index 0, largest at the end Thanks in advance for listing the labels in the requested order.
III, I, II

[a] CC(C)[C@@H]1CNC[C@@H](COc2nc(-c3cnn(C(C)(C)C)c3)cc3ncccc23)O1
[b] COCCn1ccc(-c2cc3ncccc3c(OC[C@@H]3CNCC4(CC4)O3)n2)c1
Please indicate which has the smaller reported IC50: a , or b . Return value: the label identifying the chosen record.
a
(a: 28.3 nM, b: 55.9 nM)
